meta.source: paper PMC8292346

- PROCEDURE_SUMMARY: Pharmacokinetic analysis of Nec-1f in mice (tissue PK)
- Type: in vivo, C57BL/6 mice
- EXPERIMENTAL_SETUP: male, C57BL/6, mouse, pancreas, intraperitoneal, pancreas; sample collection 1440 min; individual mice; read-out: concentration in pancreas
TEST_READOUT: concentration at 1440 min

Given the entry CN1C(=O)C(Cc2c[nH]c3c(Cl)cccc23)NC1=S (stereo not shown) [Nec-1f] , report its measured concentration at 1440 min.
0 ng/mL

----------
- PROCEDURE_SUMMARY: Pharmacokinetic analysis of Nec-1f in mice (tissue PK)
- Format: in vivo, C57BL/6 mice
- EXPERIMENTAL_SETUP: male, C57BL/6, mouse, liver, intraperitoneal, 2 mg/kg, liver; sample collection 240 min; individual mice; read-out: concentration in liver
TEST_READOUT: concentration at 240 min (ng/mL)
The answer is to be given in ng/mL; state only the numeric part.

Given the entry CN1C(=O)C(Cc2c[nH]c3c(Cl)cccc23)NC1=S (stereo not shown) , report its measured concentration at 240 min.
0
